B1: PhoQ; a variant is named by its letters at X, in order, P23837 (parent)
chain: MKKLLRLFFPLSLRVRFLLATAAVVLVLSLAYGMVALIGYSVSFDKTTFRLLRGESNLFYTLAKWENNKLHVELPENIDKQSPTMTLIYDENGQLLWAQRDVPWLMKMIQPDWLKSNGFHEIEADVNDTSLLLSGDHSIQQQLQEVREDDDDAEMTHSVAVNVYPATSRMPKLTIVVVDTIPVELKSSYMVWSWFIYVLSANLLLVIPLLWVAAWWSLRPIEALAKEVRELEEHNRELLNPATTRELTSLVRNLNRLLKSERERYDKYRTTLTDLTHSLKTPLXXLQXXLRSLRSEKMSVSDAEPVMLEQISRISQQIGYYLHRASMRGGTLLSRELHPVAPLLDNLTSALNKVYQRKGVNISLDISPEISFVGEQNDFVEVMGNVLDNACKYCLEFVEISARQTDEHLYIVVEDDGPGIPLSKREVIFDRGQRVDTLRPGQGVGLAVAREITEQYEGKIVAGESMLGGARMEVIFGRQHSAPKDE

- Variants of: B1
- Assay explanation: enrichment ratio after two sorts for PhoP signalling (ratio (wild type AVST 3.29)); higher = more functional
- Test parameters: with PhoP (E. coli)
The full ranking holds about 140,000 sequences; the median of “enrichment ratio after two sorts for PhoP signalling” is about 0, and the highest 2% start at about 11. For the sample, the highest values were picked, then their nearest neighbours and some sequences at random.
Test readout: enrichment ratio

Dear colleague, I am looking for the recorded enrichment ratio of the following variant: "AHSQ"
≤ 0.25

Param item: "TTSQ"
16.8

Param item: "GPRN"
≤ 0.25

Param item: "AIMI"
5.72

Param item: "AKSQ"
20.1

FYI, the data here is from a collection of fitness landscapes (doi:10.1126/science.1257360).
